Catalogue of Inhibition values
Tested on: Plasmodium falciparum
Assay: GSK_TCMDC: Inhibition of Plasmodium falciparum 3D7 in whole red blood cells, using parasite LDH activity as an index of growth. Test compounds present at 2uM
Type: functional
// units = %; emit number, no label

Below: 9 compounds and their reported Inhibition.
| compound | Inhibition (%) |
| --- | --- |
| Cc1cccc2nc(-c3ccc(-c4cccc(CNCCNC(=O)c5ccnn5C)c4)s3)[nH]c12.O=C(O)C(F)(F)F | 100 |
| CCCN(CC)CCOC(=O)c1ccccc1 | 99 |
| N=C1SC(=Cc2cn[nH]c2-c2ccc(F)cc2)C(=O)N1c1nccs1 | 91 |
| CC12CC3CC(C)(C1)CC(Nc1nc(N4CCOCC4)nc4ccccc14)(C3)C2 | 95 |
| COc1ccc2c(c1)Nc1ccc(Cl)cc1C2N.O=S(=O)(O)O (stereo not given) | 100 |
| COc1cc2c(cc1C(F)(F)F)N(C(=O)Nc1cc(F)c(F)c(-c3cccnc3)c1)CC2 | 90 |
| Cc1cc(C(=O)NC2CCN(Cc3ccccc3)CC2)ccc1-c1nc2ccc(C(F)(F)F)cc2[nH]1 | 95 |
| CCc1c(C)c(C#N)c2nc3ccccc3n2c1NCc1ccco1 | 99 |
| Cc1ccc(Nc2ccnc3cc(-c4nccs4)ccc23)cc1C(O)c1ccccc1.Cl (stereo not given) | 85 |

Ask | Which Inhibition is listed for CS(=O)(=O)CCNCc1cccc(-c2ccc3c(Nc4ccc(Oc5ccccc5)cc4)ccnc3c2)c1 ?
Reply | 100
